# Tested on: Mus musculus
# experiment: Percent decrease in glucose of db/db mouse was measured at 100 mg/kg/day dosage.
# Type: functional
Recorded Decrease values for a group of molecules are listed next.
observationType: Decrease

- molecule: "O=C1NC(=O)C(CC#Cc2ccc(Cl)cc2)(Sc2ccccn2)S1 (configuration not stated)"
  testedTarget: "Mus musculus"
  observationType: "Decrease"
  experimentalValue: "<15%"
- molecule: "O=C1NC(=O)C(CC#Cc2cccc(Cl)c2)(S(=O)(=O)c2ccccc2)S1 (configuration not stated)"
  testedTarget: "Mus musculus"
  observationType: "Decrease"
  experimentalValue: "<15%"
- molecule: "CSc1ccc(C#CCC2(S(=O)(=O)c3ccc(F)cc3)SC(=O)NC2=O)cc1 (configuration not stated)"
  testedTarget: "Mus musculus"
  observationType: "Decrease"
  experimentalValue: "<15%"
- molecule: "O=C1NC(=O)C(CC#Cc2ccc(Cl)cc2)(Sc2ccc3ccccc3n2)S1 (configuration not stated)"
  testedTarget: "Mus musculus"
  observationType: "Decrease"
  experimentalValue: "<15%"
- molecule: "COc1ccc(C#CCC2(S(=O)(=O)c3ccc(C)cc3)SC(=O)NC2=O)cc1 (configuration not stated)"
  testedTarget: "Mus musculus"
  observationType: "Decrease"
  experimentalValue: "<15%"
- molecule: "O=C1NC(=O)C(CC#Cc2ccccc2)(S(=O)(=O)c2ccccc2)S1 (configuration not stated)"
  testedTarget: "Mus musculus"
  observationType: "Decrease"
  experimentalValue: "<15%"
- molecule: "O=C1NC(=O)C(CC#Cc2ccccc2Cl)(S(=O)(=O)c2ccccc2)S1 (configuration not stated)"
  testedTarget: "Mus musculus"
  observationType: "Decrease"
  experimentalValue: "<15%"
